FYI, the data here is from the RNAGym collection of RNA variant scans (doi:10.7554/elife.90254).

B1: LINE1-mini (parent)
chain: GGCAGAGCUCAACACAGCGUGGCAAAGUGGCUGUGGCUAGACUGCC

# Variants of: B1
# assayProtocol: self-cleavage, relative activity (ratio to wild type); higher = more cleavage; in vitro, sequencing; the parent is a self-cleaving ribozyme
Measured self-cleavage values are reported for all entries that follow.
Answer with the value's number alone.

variant	self-cleavage
G1U A4U	0.22
G29U U34C	0.13
G2A A12U	0.41
C15A U28A	0.1
A24C A41C	0.04
G17A U32C	0.09
G7U U38G	0.03
A11U U28G	0.12
G21A C37U	0.07

Here is the next item to consider.
Param item = G2A A11G ; retrieve measured self-cleavage.
0.08
